Test Name: viability loss with induced miR-34 in A549 – imaging, A549 dox-inducible miR-34, nuclei and caspase counts, primary screen (AID 1347080)
Experimental Parameters: A549 miR-34 inducible, Hoechst nuclei count, 48 h; measured here: relative caspase fold change +Dox/-Dox
Measure Name: fold change
Form: value (number only, do not type unit).

Observe how each entry below is paired with its result.
Compound	fold change
CCOC(=O)O[C@@]1(C(=O)OCCl)CC[C@H]2[C@@H]3CCC4=CC(=O)C=C[C@]4(C)[C@@H]3C(O)C[C@@]21C (stereo partly drawn)	1.25
Cc1nsc(NC(=O)N2CCCCC2c2nc(C(C)C)no2)n1 (stereo not drawn)	1.98
O=C(COc1ccc(Cl)cc1)Nc1ccccc1C(=O)O	0.574
CCCCCCCCCCCCCCCCCCc1ccc(C(=O)/C=C/C(=O)O)cc1	0.873
O=C(O)c1ccc(-c2ccccc2C(F)(F)F)o1	0.45
CO/N=C(\C(=O)N[C@@H]1C(=O)N2C(C(=O)[O-])=C(C[N+]3(C)CCCC3)CS[C@H]12)c1csc(N)n1	1.15

Task: I would be grateful if you could share the reported fold change for Cc1cc(C)n(CCCNc2ncc(C)c(-c3cnn(C)c3)n2)n1 .
Result: 1.21

Task: Requested read-out: fold change. Entry: CC(C)(CCl)C(=O)Nc1ccc(C(F)(F)F)cc1
Result: 1.51

Task: What does the data say about its fold change? Entry: Cc1cc(=O)oc2cc(OC3OC(CO)C(O)C(O)C3O)ccc12 (stereo not drawn)
Result: 0.68

Task: Which value of fold change has been reported for N#Cc1cc([N+](=O)[O-])c2sc(C(N)=O)[n+]([O-])c2c1 in the records?
Result: 1.61

---

Readings of inhibition for the listed molecules
Test Name: growth inhibition, single agent or in combination, cell-based, chromothripsis tumors, cisplatin or BGB combos (AID 1671449);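 further: cells exposed for 96 hours; 0% = vehicle DMSO and 100% = killing by high DMSO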
Experimental Parameters: LFS_MB_P medulloblastoma cells, measured here: combination with cisplatin, at 0.5 µM, stronger effect = higher value
Report the figure in % without appending any unit label.

Please review the entries below; each comes with its answer.
>>> df
                                   molecule  measure_name  value_reported
0                       NC(=S)NN=Cc1ncccc1N    inhibition           -29.8
1  Cc1cc(C)c(Nc2ccnc(Nc3ccc(C#N)cc3)n2)c(C)c1    inhibition           -3.17
2  O=c1[nH]cnc2c1ncn2C1CCC(CO)O1 (configuration not stated)    inhibition           -38.2
3        CC(C)c1ccc(-c2cc(=O)c3ccccc3o2)cc1    inhibition            64.5
4  NC(=O)c1ncn(C2OC(CO)C(O)C2O)c1O (configuration not stated)    inhibition            -6.4

Task: Which inhibition value is on record for COc1nc(N)nc2c1ncn2[C@@H]1O[C@H](CO)[C@@H](O)[C@H]1O ?
Result: 58.9

Task: Looking for the measured inhibition of Cc1cc(C)cc(C(=O)NOCCCCCC(=O)NO)c1 , can you help?
Result: 23.3

---

Test Name: P. berghei load reduction in hepatocytes – cell-based, HepG2, luciferase luminescence, HepG2 viability, primary screen (AID 624349);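 further: 100% = mean of DMSO negative control wells on the same plate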
Experimental Parameters: P. berghei liver stage in HepG2, luciferase luminescence, concentration not given here
The source made the active and inactive calls. Cut-off read from the data, not from the text of the source: active = parasite load remaining mostly below about 12% (no sharp cut-off); inactive = mostly above about 10%. Numbered stars: 1 amine (or outer) side, 2 acyl side, 3 side chain; on linkers, the order of the positions; unused ones are H or OH. Bridge positions count the residues as written; N and C are the ends. Square brackets hold non-standard residues; d marks the D form. Peptide text beside a SMILES is read from it. * marks the point of attachment. Heptanoyl(6-Me) = CC(C)CCCCC(=O)*; X3 = CC(C)C(CN[*:1])C(=O)[*:2]; Dab = NCC[CH](N)C(=O)O
Please state which outcome applies, choosing from true for active, false for inactive

// below: answered compounds
Compound	Assigned Label
CC(C)CCCCC(=O)NC(CCN)C(=O)NC(C(=O)NC(CCN)C(=O)NC1CCNC(=O)C(C(C)O)NC(=O)C(CCN)NC(=O)C(CCN)NC(=O)C(C(C)C)CNC(=O)C(CC(C)C)NC(=O)C(CCN)NC1=O)C(C)O (stereo not drawn) ({Heptanoyl(6-Me)}-[Dab]T[Dab][Dab][Dab]L[X3][Dab][Dab]T; lactam 4-C; configuration not given here)	false
O=C1NC(=O)/C(=C/c2ccc3c(c2)OCO3)S1	false
CC(N)C(O)c1cccc(O)c1 (stereo not drawn)	false
CC(=O)c1ccc(N2CCOCC2)cc1O	false
CC(=O)O/N=C1\C(c2c(O)[nH]c3cc(Br)ccc23)=Nc2ccccc21	false
CCCC1C(=O)N2C(N(C)C)=Nc3ccc(C)cc3N2C1=O (stereo not drawn)	false
Cc1ncc2ccccc2c1C#N	false
Cc1nc(N)sc1-c1ccnc(Nc2cccc([N+](=O)[O-])c2)n1	false
Cc1cc2ncc(-c3ccccc3)nc2cc1C	false
CC1(C)S[C@@H]2[C@H](NC(=O)COc3ccccc3)C(=O)N2C1C(=O)O (stereo partly drawn) (tested in a mixture with another compound)	false

Would you kindly look at the next entry?
Task: Test call, this compound: COc1ccc(CC(N)C(=O)N[C@@H]2C(O)[C@H](n3cnc4c(N(C)C)ncnc43)O[C@@H]2CO)cc1 (stereo partly drawn)
Result: false

---

Test Name: galactose survival enhancers in mitochondrial complex I cybrids – cell-based, galactose medium, ATP luminescence, primary screen (AID 1645843);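 further: positive z means more ATP and so rescue of galactose-driven cybrid death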
Experimental Parameters: complex I mutant cybrid cells, 72 h
Active and inactive are the calls of the source.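 The calls were made as follows: active = z-score of at least 1.8 in each of two replicates, scored against plate mean and spread of sample wells; inactive = the rest.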
Respond using exactly one of the listed classes: yes (1) (active), no (0) (inactive)

# example entries with known answers
Molecule	Assigned Label
Cc1ccsc1C(=O)N1CCC(n2cc(C(C)(C)O)nn2)CC1	no (0)
CCCc1ccc(C(=O)N2CCC2c2cccc(OC)c2)cc1 (configuration not stated)	yes (1)

Task: Per the assay record, what outcome was assigned to CC1(C)CC(Nc2nccc(-c3cnn(-c4ccccc4)c3)n2)CC(C)(C)N1 ?
Result: yes (1)

Task: Hi, sorry to bother you, what did the test record for CCOC(=O)c1cc2ccc(O)cc2oc1=O ?
Result: no (0)

Task: Hey, what did the test say about CC1(C)OC2CO[C@@]3(COS(N)(=O)=O)OC(C)(C)OC3C2O1 (some centres not stated) ?
Result: no (0)

Task: Recorded test call requested for CO[C@H]1C[C@H](O[C@H]2[C@H](C)[C@@H](O[C@@H]3O[C@H](C)C[C@H](N(C)C)[C@H]3OC(C)=O)[C@@H](C)C[C@@]3(CO3)C(=O)[C@H](C)[C@@H](OC(C)=O)[C@@H](C)[C@@H](C)OC(=O)[C@@H]2C)O[C@@H](C)[C@@H]1OC(C)=O
Result: no (0)

Task: What call does the record list for CCC(=O)OC(OP(=O)(CCCCc1ccccc1)CC(=O)N1C[C@H](C2CCCCC2)C[C@H]1C(=O)O)C(C)C (some centres not stated) ?
Result: no (0)

Task: Call for entry Cn1nc(C(C)(C)C)cc1NC(=O)Nc1ccc(Cl)cc1 :
Result: no (0)

Task: Answer briefly: the call reported for CC(C)CC1(CO)CCCN(C(=O)c2cccc(C#CC(C)(C)O)c2)C1 (configuration not stated) in this assay.
Result: no (0)

Task: Which outcome did this test record for the molecule O=C(O)CCCC[C@@H]1CCSS1 ?
Result: no (0)

Task: Just curious, what result did COc1ccc(CCC(C)NC2CC(C)(C)NC(C)(C)C2)cc1 (configuration not stated) get here?
Result: no (0)

Task: Write down the call the test reported for this molecule. Item: CCC(C)(C)c1nnc(NC(=O)NCc2ccco2)s1
Result: yes (1)

Task: What was the test verdict on Cc1ncsc1-c1ccn(CC(=O)Nc2ccnn2C2CCCCC2)n1 ?
Result: no (0)

Task: Test call for this molecule, please: COC(=O)c1c(NC(=O)c2ccco2)c2cc(NC3CCOCC3)cnc2n1C
Result: no (0)

---

Test Name: MELAS cybrid and Rieske KO viability enhancers – cell-based, MELAS cybrids, Rieske KO mouse fibroblasts, CellTiter-Glo, primary screen (AID 1508586);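 further: z relative to plate mean and SD of compound and empty wells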
Experimental Parameters: MELAS cybrid survival, low glucose, CellTiter-Glo 48 h; stronger effect = higher value
Measure Name: z-score
Answer field: number only, no words.

                                   molecule  value_reported
0  Cc1ccccc1-n1c(Cn2nc(-c3cccc(O)c3)c3c(N)ncnc32)nc2cccc(C)c2c1=O          -0.245
1  COc1ccc(CN(C)C(=O)Nc2nc(-c3ccccc3)ns2)cc1         -0.0703
2  O=C(Cn1cnnn1)N1CC(=O)N(C2CCCCC2)CC(OCc2ccccc2)C1 (stereo not given)          -0.326
3                O=C(Nc1cccc(Cl)c1)c1ccccn1           0.406

Task: Request the reported z-score associated with COC(=O)c1c(NC(=O)C2CCC2)c2cc(NC3CCSCC3)cnc2n1CCc1ccccn1
Result: -0.0865

Where do these numbers come from? They come from PubChem BioAssay.
